Values from ChEMBL document CHEMBL1909046

protocol description: DRUGMATRIX: GABAA, Flunitrazepam, Central radioligand binding (ligand: [3H] Flunitrazepam)
Assay type: cell membranes, Rattus norvegicus, Wistar, Brain, Membrane
reported conditions: Not Active = under 50% inhibition at 10 µM
readout name: IC50

1. TRANSPLATIN ... Not Active
2. ZIRCONIUM(IV) CHLORIDE ... Not Active
3. COLISTIN ... Not Active
4. COBALTOUS CHLORIDE ... Not Active

---

target: Muscarinic acetylcholine receptor M5 (Homo sapiens); further: in other assays of this panel Not Active means under 50% inhibition at 10 µM
Sequence (P08912 whole entry): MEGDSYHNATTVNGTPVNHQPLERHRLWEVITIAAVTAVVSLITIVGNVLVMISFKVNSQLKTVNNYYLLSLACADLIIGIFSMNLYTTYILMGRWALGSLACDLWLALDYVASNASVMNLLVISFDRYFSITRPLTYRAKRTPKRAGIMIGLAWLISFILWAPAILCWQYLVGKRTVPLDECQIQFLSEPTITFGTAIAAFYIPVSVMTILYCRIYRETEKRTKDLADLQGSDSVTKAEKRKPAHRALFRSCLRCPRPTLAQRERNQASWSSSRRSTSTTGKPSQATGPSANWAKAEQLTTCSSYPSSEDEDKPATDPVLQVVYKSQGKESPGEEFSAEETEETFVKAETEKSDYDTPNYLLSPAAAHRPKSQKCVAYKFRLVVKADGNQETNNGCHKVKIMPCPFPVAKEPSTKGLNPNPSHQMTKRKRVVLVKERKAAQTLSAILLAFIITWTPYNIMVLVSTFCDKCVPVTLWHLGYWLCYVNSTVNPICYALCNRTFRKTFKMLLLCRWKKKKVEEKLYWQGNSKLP
Format: cell membranes, CHO-K1, Membrane
reported conditions: cho-k1
readout name: IC50

Solved entries:
1. NNCCc1ccccc1 ... Not Active
2. COc1cc(OC)c(C(=O)CCCN2CCCC2)c(OC)c1 ... Not Active
3. CCN(C(C)=O)c1cccc(-c2ccnc3c(C#N)cnn23)c1 ... Not Active
4. Nc1ccc(S(=O)(=O)NC(=O)c2ccccc2)cc1 [SULFABENZAMIDE] ... Not Active
5. C[C@H]1O[C@H](O[C@H]2[C@H](O)[C@@H](O)[C@@H](O[C@H]3[C@H](O)[C@@H](O)C(O)O[C@@H]3CO)O[C@@H]2CO)[C@H](O)[C@@H](O)[C@@H]1N[C@H]1C=C(CO)[C@@H](O)[C@H](O)[C@H]1O (stereo partly specified) ... Not Active

Now take the following molecule into account.
Retrieve IC50 on Muscarinic acetylcholine receptor M5 (Homo sapiens); query `NC12CC3CC(CC(C3)C1)C2`
Not Active
